Below: a set of entries, each annotated with reported IC50.
Target: PDE4B: The catalytic domain of human PDE4B from S152-S528 (Homo sapiens, UniProt Q07343)
Construct: His6 (N); thrombin cleavage site (N); made in house; host or cells: E. coli
Sequence (Q07343 with tags, fused parts or gaps): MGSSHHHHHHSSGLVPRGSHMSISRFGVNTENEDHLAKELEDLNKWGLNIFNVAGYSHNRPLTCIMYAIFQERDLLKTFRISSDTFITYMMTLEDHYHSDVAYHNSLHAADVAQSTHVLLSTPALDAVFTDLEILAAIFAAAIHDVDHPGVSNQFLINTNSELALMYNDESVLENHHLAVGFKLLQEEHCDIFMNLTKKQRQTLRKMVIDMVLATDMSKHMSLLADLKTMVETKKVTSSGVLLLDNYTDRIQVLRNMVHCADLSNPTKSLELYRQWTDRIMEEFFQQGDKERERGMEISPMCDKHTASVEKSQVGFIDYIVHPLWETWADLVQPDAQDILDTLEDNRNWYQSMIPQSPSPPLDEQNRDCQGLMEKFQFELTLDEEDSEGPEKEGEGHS
Assay: PDE4 IC50 determination by Scintillation Proximity Assay, PDE4B
Assay type: biochemical
Conditions: Table 1B, Formula I compounds; read-out: IC50 PDE4B

[
  {
    "compound": "CCc1c(Nc2ccc(Oc3ccccc3)cc2)sc(C(=O)c2ccccc2)c1N",
    "testTarget": "PDE4B: The catalytic domain of human PDE4B from S152-S528 (Homo sapiens, UniProt Q07343)",
    "IC50": "< 10 µM"
  },
  {
    "compound": "COc1ccc(Nc2sc(C(=O)c3coc4ccccc34)c(N)c2C#N)cc1",
    "testTarget": "PDE4B: The catalytic domain of human PDE4B from S152-S528 (Homo sapiens, UniProt Q07343)",
    "IC50": "< 10 µM"
  },
  {
    "compound": "N#Cc1c(NC2CCCC2)sc(C(=O)c2cc(-c3c(Cl)cccc3Cl)no2)c1N",
    "testTarget": "PDE4B: The catalytic domain of human PDE4B from S152-S528 (Homo sapiens, UniProt Q07343)",
    "IC50": "< 10 µM"
  },
  {
    "compound": "COc1ccc(Nc2sc(C(=O)c3cccc(Cl)c3)c(N)c2C#N)cc1",
    "testTarget": "PDE4B: The catalytic domain of human PDE4B from S152-S528 (Homo sapiens, UniProt Q07343)",
    "IC50": "< 10 µM"
  },
  {
    "compound": "Cc1onc(-c2ccccc2)c1C(=O)c1sc(NCCN2CCCCC2)c(C#N)c1N",
    "testTarget": "PDE4B: The catalytic domain of human PDE4B from S152-S528 (Homo sapiens, UniProt Q07343)",
    "IC50": "> 10 µM"
  },
  {
    "compound": "COc1ccc(C(=O)c2sc(NC3CCCC3)c(C#N)c2N)cc1",
    "testTarget": "PDE4B: The catalytic domain of human PDE4B from S152-S528 (Homo sapiens, UniProt Q07343)",
    "IC50": "< 10 µM"
  },
  {
    "compound": "COc1ccc(Nc2sc(C(=O)c3cnn(-c4ccccc4)c3C)c(N)c2C#N)cc1",
    "testTarget": "PDE4B: The catalytic domain of human PDE4B from S152-S528 (Homo sapiens, UniProt Q07343)",
    "IC50": "< 10 µM"
  },
  {
    "compound": "CC(C)C(C)Nc1sc(C(=O)c2cc(-c3ccc(Cl)c(Cl)c3)no2)c(N)c1C(N)=O (centres unmarked)",
    "testTarget": "PDE4B: The catalytic domain of human PDE4B from S152-S528 (Homo sapiens, UniProt Q07343)",
    "IC50": "< 10 µM"
  },
  {
    "compound": "COc1ccc(C(=O)c2sc(NC3CC3)c(C#N)c2N)cc1",
    "testTarget": "PDE4B: The catalytic domain of human PDE4B from S152-S528 (Homo sapiens, UniProt Q07343)",
    "IC50": "< 10 µM"
  },
  {
    "compound": "COc1ccc(Nc2sc(C(=O)c3ccc(OC)cc3OC)c(N)c2C#N)cc1",
    "testTarget": "PDE4B: The catalytic domain of human PDE4B from S152-S528 (Homo sapiens, UniProt Q07343)",
    "IC50": "< 10 µM"
  },
  {
    "compound": "COC(=O)C(CC(C)C)Nc1sc(C(=O)c2ccc(C)cc2C)c(N)c1C#N (centres unmarked)",
    "testTarget": "PDE4B: The catalytic domain of human PDE4B from S152-S528 (Homo sapiens, UniProt Q07343)",
    "IC50": "> 10 µM"
  },
  {
    "compound": "COC(=O)C(CC(C)C)Nc1sc(C(=O)c2ccccn2)c(N)c1C#N (centres unmarked)",
    "testTarget": "PDE4B: The catalytic domain of human PDE4B from S152-S528 (Homo sapiens, UniProt Q07343)",
    "IC50": "< 10 µM"
  },
  {
    "compound": "CC(=O)C1=C(C)Nc2sc(C(N)=O)c(N)c2C1c1ccco1 (centres unmarked)",
    "testTarget": "PDE4B: The catalytic domain of human PDE4B from S152-S528 (Homo sapiens, UniProt Q07343)",
    "IC50": "> 10 µM"
  },
  {
    "compound": "Cc1nc(-c2cnccn2)sc1C(=O)c1sc(NC2CCCC2)c(C#N)c1N",
    "testTarget": "PDE4B: The catalytic domain of human PDE4B from S152-S528 (Homo sapiens, UniProt Q07343)",
    "IC50": "< 10 µM"
  },
  {
    "compound": "COC(=O)C(CC(C)C)Nc1sc(C(=O)c2ccc(OC)cc2OC)c(N)c1C#N (centres unmarked)",
    "testTarget": "PDE4B: The catalytic domain of human PDE4B from S152-S528 (Homo sapiens, UniProt Q07343)",
    "IC50": "< 10 µM"
  },
  {
    "compound": "COc1ccc(CNc2sc(C(=O)c3ccccn3)c(N)c2C#N)cc1OC",
    "testTarget": "PDE4B: The catalytic domain of human PDE4B from S152-S528 (Homo sapiens, UniProt Q07343)",
    "IC50": "< 10 µM"
  },
  {
    "compound": "N#Cc1c(Nc2ccccc2)sc(C(=O)c2ccc(Cl)cc2)c1N",
    "testTarget": "PDE4B: The catalytic domain of human PDE4B from S152-S528 (Homo sapiens, UniProt Q07343)",
    "IC50": "< 10 µM"
  },
  {
    "compound": "CSc1cccc(Nc2sc(C(=O)c3ccccc3)c(N)c2C#N)c1",
    "testTarget": "PDE4B: The catalytic domain of human PDE4B from S152-S528 (Homo sapiens, UniProt Q07343)",
    "IC50": "< 10 µM"
  },
  {
    "compound": "Cc1onc(-c2ccccc2)c1C(=O)c1sc(NC2CCCC2)c(C#N)c1N",
    "testTarget": "PDE4B: The catalytic domain of human PDE4B from S152-S528 (Homo sapiens, UniProt Q07343)",
    "IC50": "< 10 µM"
  },
  {
    "compound": "N#Cc1c(NCC2CCCO2)sc(C(=O)c2ccc(-c3ccccn3)s2)c1N (centres unmarked)",
    "testTarget": "PDE4B: The catalytic domain of human PDE4B from S152-S528 (Homo sapiens, UniProt Q07343)",
    "IC50": "< 10 µM"
  },
  {
    "compound": "CC1C2=C(CC(C)(C)CC2=O)Nc2sc(C(N)=O)c(N)c21 (centres unmarked)",
    "testTarget": "PDE4B: The catalytic domain of human PDE4B from S152-S528 (Homo sapiens, UniProt Q07343)",
    "IC50": "> 10 µM"
  },
  {
    "compound": "N#Cc1c(NC2CCCC2)sc(C(=O)c2cc(-c3ccc(Cl)cc3Cl)no2)c1N",
    "testTarget": "PDE4B: The catalytic domain of human PDE4B from S152-S528 (Homo sapiens, UniProt Q07343)",
    "IC50": "< 10 µM"
  },
  {
    "compound": "CC(C)C(C)Nc1sc(C(=O)c2cc(-c3ccccc3)no2)c(N)c1C#N (centres unmarked)",
    "testTarget": "PDE4B: The catalytic domain of human PDE4B from S152-S528 (Homo sapiens, UniProt Q07343)",
    "IC50": "< 10 µM"
  },
  {
    "compound": "N#Cc1c(Nc2ccc(Oc3ccccc3)cc2)sc(C(=O)C2CCCC2)c1N",
    "testTarget": "PDE4B: The catalytic domain of human PDE4B from S152-S528 (Homo sapiens, UniProt Q07343)",
    "IC50": "< 10 µM"
  },
  {
    "compound": "COC(=O)C(CCSC)Nc1sc(C(=O)c2cnn(-c3ccccc3)c2C)c(N)c1C#N (centres unmarked)",
    "testTarget": "PDE4B: The catalytic domain of human PDE4B from S152-S528 (Homo sapiens, UniProt Q07343)",
    "IC50": "> 10 µM"
  },
  {
    "compound": "N#Cc1c(Nc2ccccc2)sc(C(=O)c2ccc3ccccc3c2)c1N",
    "testTarget": "PDE4B: The catalytic domain of human PDE4B from S152-S528 (Homo sapiens, UniProt Q07343)",
    "IC50": "< 10 µM"
  },
  {
    "compound": "COC(=O)c1ccccc1Nc1sc(C(=O)c2ccccn2)c(N)c1C#N",
    "testTarget": "PDE4B: The catalytic domain of human PDE4B from S152-S528 (Homo sapiens, UniProt Q07343)",
    "IC50": "< 10 µM"
  },
  {
    "compound": "CC(C)CNc1sc(C(=O)c2cc(-c3ccc(N)cc3)no2)c(N)c1C(N)=O",
    "testTarget": "PDE4B: The catalytic domain of human PDE4B from S152-S528 (Homo sapiens, UniProt Q07343)",
    "IC50": "< 10 µM"
  },
  {
    "compound": "COC(=O)C(CC(C)C)Nc1sc(C(=O)c2cccc(Cl)c2)c(N)c1C#N (centres unmarked)",
    "testTarget": "PDE4B: The catalytic domain of human PDE4B from S152-S528 (Homo sapiens, UniProt Q07343)",
    "IC50": "< 10 µM"
  },
  {
    "compound": "COc1ccc(Nc2sc(C(=O)c3cc(-c4ccc(Cl)cc4Cl)no3)c(N)c2C#N)cc1",
    "testTarget": "PDE4B: The catalytic domain of human PDE4B from S152-S528 (Homo sapiens, UniProt Q07343)",
    "IC50": "< 10 µM"
  },
  {
    "compound": "COc1ccc(OC)c(C(=O)c2sc(NC3CCOC3=O)c(C#N)c2N)c1 (centres unmarked)",
    "testTarget": "PDE4B: The catalytic domain of human PDE4B from S152-S528 (Homo sapiens, UniProt Q07343)",
    "IC50": "< 10 µM"
  },
  {
    "compound": "COc1ccc(OC)c(C(=O)c2sc(Nc3ccccc3F)c(C#N)c2N)c1",
    "testTarget": "PDE4B: The catalytic domain of human PDE4B from S152-S528 (Homo sapiens, UniProt Q07343)",
    "IC50": "< 10 µM"
  },
  {
    "compound": "COc1ccccc1Nc1sc(C(=O)c2ccccc2)c(N)c1C#N",
    "testTarget": "PDE4B: The catalytic domain of human PDE4B from S152-S528 (Homo sapiens, UniProt Q07343)",
    "IC50": "< 10 µM"
  },
  {
    "compound": "NC(=O)c1sc2[nH]c(=O)c(C(=O)O)cc2c1N",
    "testTarget": "PDE4B: The catalytic domain of human PDE4B from S152-S528 (Homo sapiens, UniProt Q07343)",
    "IC50": "> 10 µM"
  },
  {
    "compound": "N#Cc1c(NCCN2CCCCC2)sc(C(=O)c2cccc(Cl)c2)c1N",
    "testTarget": "PDE4B: The catalytic domain of human PDE4B from S152-S528 (Homo sapiens, UniProt Q07343)",
    "IC50": "> 10 µM"
  }
]
